# TARGET: T1, Recombinant Rhesus OX40L (Leader Sequence, FLAG and Isoleucine zipper included) (Rhesus (Macaca mulatta))
# T1 construct: also called RhsOX40L; Rhesus monkey OX40L
# T1 sequence (chain, as listed by the source limits assumed): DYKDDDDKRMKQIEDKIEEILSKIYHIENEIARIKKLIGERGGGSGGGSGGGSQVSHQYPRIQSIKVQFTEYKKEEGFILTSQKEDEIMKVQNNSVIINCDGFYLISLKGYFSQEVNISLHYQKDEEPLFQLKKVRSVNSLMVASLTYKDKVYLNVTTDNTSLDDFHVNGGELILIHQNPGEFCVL
# TEST DETAILS: SPR (ProteOn XPR36), antibody captured, rhesus OX40L at 256 nM, 25 C; CNROR = cannot resolve off-rate

BINDER	binding result
10A07 (human) (antibody, V domains shown, also called 10A07 IgG4PE; 10A7 IgG4-PE) VH: EVQLVESGGVLVQPGGSLRLSCAASGFTFSSYIMTWVRQAPGKGLEWVSGISGSGGGTYYADSMKGRFTISRDNSKNTLYLQMNSLRVEDTAVYYCAKDRLGPITLVRGGYYYGMDVWGQGTTVTVSS VL: DIQMTQSPSSLSASVGDRVTITCRASQSISDYLNWYQQKPGKAPKFLIYAASSLQSGVPSRFSGSGSGTDFTLTVSSLQPEDFATYYCQQSYSTPRTFGQGTRVEIKR	binds
2D10 (hybridoma) (antibody, V domains shown, Purified from hybridoma supernatant as a murine/human chimeric antibody (human variable domains, mouse constant regions); also called 02D10) VH: EVQLVESGGGLVQPGGSLRLSCAASGFTFSNYAMNWVRQAPGKGLEWVSTISGSGGATRYADSVKGRFTISRDNSRNTVYLQMNSLRVEDTAVFYCTKDRLIMATVRGPYYYGMDVWGQGTTVTVSS VL: DIQMTQSPSSLSASVGDRVTITCRASQSISSYLNWYQQKPGKAPNLLIYAASSLQSGVPSRFSGSGSETDFTLTISSLQPEDFATYYCQQSHSVSFTFGPGTKVDIK	binds
2D10 (human) (antibody, human IgG4 S228P, kappa, V domains shown, Recombinant fully human IgG4-PE/kappa; also called 02D10 IgG4-PE; 2D10 IgG4PE) VH: EVQLVESGGGLVQPGGSLRLSCAASGFTFSNYAMNWVRQAPGKGLEWVSTISGSGGATRYADSVKGRFTISRDNSRNTVYLQMNSLRVEDTAVFYCTKDRLIMATVRGPYYYGMDVWGQGTTVTVSS VL: DIQMTQSPSSLSASVGDRVTITCRASQSISSYLNWYQQKPGKAPNLLIYAASSLQSGVPSRFSGSGSETDFTLTISSLQPEDFATYYCQQSHSVSFTFGPGTKVDIKR	binds
